Values were extracted from patent US20250066335A1.

Biological target: GPR84 (Homo sapiens)
Construct: expressed in transfected cells; host or cells: HTLA cells (HEK293 line stably expressing a tTA-dependent luciferase reporter and a β-arrestin2-TEV fusion gene), transiently transfected with PEI
Assay: PRESTO-Tango β-arrestin2 recruitment assay, GPR84 antagonistic activity
Format: cell-based
Details: antagonist activity in the Presto-TANGO assay; inhibition of the response from the agonist ZQ-16 (100 nM); HTLA cells
Please assign no (0) whenever IC50 is at or above 0.8 nM, and yes (1) whenever it is below.

Q: is_below(IC50, 0.8 nM) for CCc1c(O)cc(OCC2COCCO2)nc1CCc1ccc(OCCNC(=O)OC(C)(C)C)cc1 (centres unmarked) ?
Ans: yes (1)

====

Target: GPR84 (Homo sapiens, UniProt Q9NQS5)
Sequence (Q9NQS5 whole entry, the tested form may be a part): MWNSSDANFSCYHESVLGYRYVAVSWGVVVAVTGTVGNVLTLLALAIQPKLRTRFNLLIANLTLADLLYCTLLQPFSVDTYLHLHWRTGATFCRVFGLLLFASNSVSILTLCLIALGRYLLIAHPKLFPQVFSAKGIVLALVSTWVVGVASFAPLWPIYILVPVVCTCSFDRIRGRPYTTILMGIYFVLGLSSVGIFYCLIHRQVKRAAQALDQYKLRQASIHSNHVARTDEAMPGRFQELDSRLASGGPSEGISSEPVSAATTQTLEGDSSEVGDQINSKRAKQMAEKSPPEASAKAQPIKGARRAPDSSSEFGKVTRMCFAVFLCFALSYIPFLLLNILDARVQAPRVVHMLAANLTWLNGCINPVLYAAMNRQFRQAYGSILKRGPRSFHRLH
Assay: PRESTO-Tango β-arrestin2 recruitment assay, GPR84 antagonistic activity
Conditions: antagonist activity in the Presto-TANGO assay; inhibition of the response from the agonist ZQ-16 (100 nM); HTLA cells
assay metric: pIC50
Give only the number. pIC50 is defined as minus log10 of concentration in molar units.

Examples from the recorded data:
compound	recorded number
CCc1c(O)cc(OCC2COCCO2)nc1CCc1ccc(OCCCS(C)(=O)=O)cc1 (stereo not shown)	9.06
CCc1c(O)cc(OCC2COCCO2)nc1CCc1ccc(OCc2nc(C(=O)OC)co2)cc1 (stereo not shown)	9.12
CCOc1ccc(CCc2nc(OCC3COCCO3)cc(O)c2CC)cc1 (stereo not shown)	9.41

Now for another entry.
Q: State the recorded pIC50 for this entry: CCCc1ccc(CCc2nc(OCC3CCCCO3)cc(O)c2CCCO)cc1 (stereo not shown)
Ans: 8.77
